Origin of measurements: patent US9688764B2

study_target: T1, T47D (native PRLR expressing cell line) (Homo sapiens, UniProt P16471)
T1 construct: a native PRLR expressing cell line (T47D); endogenous in cells; host or cells: T47D
T1 sequence (P16471 25-622): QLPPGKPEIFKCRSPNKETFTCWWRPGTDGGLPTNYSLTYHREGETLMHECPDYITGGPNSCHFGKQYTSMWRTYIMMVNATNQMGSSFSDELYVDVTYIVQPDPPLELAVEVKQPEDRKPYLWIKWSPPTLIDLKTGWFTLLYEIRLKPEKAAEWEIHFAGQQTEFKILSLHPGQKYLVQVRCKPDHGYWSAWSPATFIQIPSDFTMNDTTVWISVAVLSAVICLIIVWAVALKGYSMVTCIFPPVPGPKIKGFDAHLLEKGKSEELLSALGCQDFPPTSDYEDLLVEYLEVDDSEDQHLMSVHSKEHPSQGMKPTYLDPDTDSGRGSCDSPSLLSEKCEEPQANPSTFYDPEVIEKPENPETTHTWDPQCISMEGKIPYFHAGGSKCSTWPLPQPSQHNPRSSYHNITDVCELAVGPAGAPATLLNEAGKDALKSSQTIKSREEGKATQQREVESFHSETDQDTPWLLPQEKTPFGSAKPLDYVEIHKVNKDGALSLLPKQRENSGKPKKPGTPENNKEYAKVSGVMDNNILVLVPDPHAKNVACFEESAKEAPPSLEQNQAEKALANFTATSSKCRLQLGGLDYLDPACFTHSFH
method_summary: FACS cell surface binding
measurement_kind: FACS Cell Binding (Fold Above Background)
Numbers only here, please. The scale is Fold Above Background.

Challenge: Fill in the blank: the reported FACS Cell Binding (Fold Above Background) of H1H6803P: anti-PRLR antibody, human IgG1 Fc; HCVR/LCVR SEQ ID NOs 226/234 (antibody, V domains shown, human IgG1 Fc) VH: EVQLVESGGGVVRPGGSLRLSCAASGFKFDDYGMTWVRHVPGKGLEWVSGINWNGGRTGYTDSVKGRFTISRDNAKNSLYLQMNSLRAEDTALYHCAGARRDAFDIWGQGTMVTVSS VL: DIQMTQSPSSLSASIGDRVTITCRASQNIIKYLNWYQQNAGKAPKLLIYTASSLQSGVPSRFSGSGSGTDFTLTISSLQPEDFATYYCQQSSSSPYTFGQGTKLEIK is ____.
Response given: 39
